- target under test: PBP2WT (Clostridioides difficile, UniProt A0A9R0CDX1)
- Sequence (A0A9R0CDX1 entry or part of it): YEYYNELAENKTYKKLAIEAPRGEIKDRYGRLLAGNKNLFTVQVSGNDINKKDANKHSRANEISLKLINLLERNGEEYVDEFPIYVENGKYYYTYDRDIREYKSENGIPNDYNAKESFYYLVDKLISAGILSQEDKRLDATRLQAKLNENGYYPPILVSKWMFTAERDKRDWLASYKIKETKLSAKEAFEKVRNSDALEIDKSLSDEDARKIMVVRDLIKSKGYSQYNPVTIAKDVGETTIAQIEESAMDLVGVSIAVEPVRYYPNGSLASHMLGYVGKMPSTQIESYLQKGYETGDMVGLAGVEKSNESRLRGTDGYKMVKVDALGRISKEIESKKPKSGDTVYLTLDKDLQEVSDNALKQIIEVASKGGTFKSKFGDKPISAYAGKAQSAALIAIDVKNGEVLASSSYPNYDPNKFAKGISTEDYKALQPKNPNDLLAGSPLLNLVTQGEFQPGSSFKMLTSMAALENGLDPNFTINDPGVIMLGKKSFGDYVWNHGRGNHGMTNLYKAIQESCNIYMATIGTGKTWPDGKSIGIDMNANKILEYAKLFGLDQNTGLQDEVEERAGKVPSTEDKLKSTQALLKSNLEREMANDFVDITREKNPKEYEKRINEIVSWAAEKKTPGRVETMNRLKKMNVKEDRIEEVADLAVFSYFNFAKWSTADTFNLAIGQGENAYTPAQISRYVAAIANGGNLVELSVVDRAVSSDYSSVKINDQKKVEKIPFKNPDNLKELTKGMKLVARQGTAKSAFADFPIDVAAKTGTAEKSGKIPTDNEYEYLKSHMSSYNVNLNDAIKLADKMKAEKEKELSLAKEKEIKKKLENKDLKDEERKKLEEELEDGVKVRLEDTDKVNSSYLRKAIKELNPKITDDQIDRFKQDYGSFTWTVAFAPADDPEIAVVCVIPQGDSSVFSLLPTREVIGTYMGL
pKd: −log10 of the molar value.
experimental readout: pKd

| compound | measured number |
| --- | --- |
| Cc1cc(C)n2c1C=C1C=CC(CCC(=O)Nc3ccc(OCC(=O)N[C@@H]4C(=O)N5[C@@H]4SC(C)(C)[C@@H]5C(=O)O)cc3)=[N+]1[B-]2(F)F [bocillin] | 5.53 |

###

- Tested on: Ldt2
- experimental protocol: Nitrocefin inhibition assay, Ldt2
- Assay type: biochemical, Clostridioides difficile R20291
- particulars: 25 µM

| mol smiles | inhibition of Ldt2 (in words) |
| --- | --- |
| C[C@@H](O)[C@H]1C(=O)N2C(C(=O)O)=C(S[C@@H]3CN[C@H](CNS(N)(=O)=O)C3)[C@H](C)[C@H]12 | best inhibitors of Ldt2 |
| C[C@@H](O)[C@H]1C(=O)N2C(C(=O)O)=C(S[C@@H]3CN[C@H](C(=O)N(C)C)C3)[C@H](C)[C@H]12 | best inhibitors of Ldt2 |
| CCN1CCN(C(=O)N[C@@H](C(=O)N[C@@H]2C(=O)N3[C@@H]2SC(C)(C)[C@@H]3C(=O)O)c2ccccc2)C(=O)C1=O | best inhibitors of Ldt2 |

###

- target under test: PBP2D515N (Clostridioides difficile, UniProt A0A9R0CDX1, D515N)
- experimental protocol: biochemical
experimental readout: Kd (µM)

| compound | target under test | readout unit | measured number |
| --- | --- | --- | --- |
| Cc1cc(C)n2c1C=C1C=CC(CCC(=O)Nc3ccc(OCC(=O)N[C@@H]4C(=O)N5[C@@H]4SC(C)(C)[C@@H]5C(=O)O)cc3)=[N+]1[B-]2(F)F [bocillin] | PBP2D515N (Clostridioides difficile, UniProt A0A9R0CDX1, D515N) | µM | 16.7 |
